// provenance: PubChem BioAssay (NCI)

Tested on: U251 CNS
Experiment: NCI tumour cell line growth inhibition, 48 h

>  <Compound>
N#C/C(=C1/C(=O)Nc2ccccc21)c1nnc(NC(=O)c2ccc(-n3c(=O)[nH]c4ccccc4c3=O)cc2)s1

>  <TGI>
> 100 µM

$$$$
>  <Compound>
CCCn1cc(-c2nc(Nc3ccc(C(=O)NCCCCNc4cccc5c4C(=O)N(C4CCC(=O)NC4=O)C5=O)cc3)nc3[nH]ccc23)cn1 (centres undefined)

>  <TGI>
> 100 µM

$$$$
>  <Compound>
O=C(N/N=C/c1ccc(-c2ccc(O)cc2)s1)c1[nH]c2ccc(Br)cc2c1-c1ccccc1

>  <TGI>
15.5 µM

$$$$
>  <Compound>
O=C1C=CC(=CC=C2N(Cc3ccc4ccccc4c3)c3ccccc3N2Cc2ccc3ccccc3c2)C=C1

>  <TGI>
1.78 µM

$$$$

###

System: MDA-MB-468 breast
Experiment: NCI tumour cell line growth inhibition, 48 h
Parameter: TGI (µM)

>  <Mol Smiles>
COC(=O)[C@@H](C)CNS(=O)(=O)N(c1cc(C(F)(F)F)cc(C(F)(F)F)c1)C1CCN(Cc2ccc(F)cc2)CC1

>  <Parameter>
TGI

>  <Inequality Operator>
=

>  <Obs Value>
15.3

$$$$
>  <Mol Smiles>
COc1cc2ncnc(Nc3ccc(C)c(O)c3)c2cc1OC

>  <Parameter>
TGI

>  <Inequality Operator>
=

>  <Obs Value>
8.87

$$$$
>  <Mol Smiles>
CC(C)n1nc(-c2cc3cc(O)ccc3[nH]2)c2c(N)ncnc21

>  <Parameter>
TGI

>  <Inequality Operator>
=

>  <Obs Value>
1.01

$$$$
>  <Mol Smiles>
COc1cc2c(c(OC)c1OC)-c1ccc(OC)c(=O)cc1[C@@H](NC(=O)c1ccccc1)CC2

>  <Parameter>
TGI

>  <Inequality Operator>
>

>  <Obs Value>
100

$$$$
>  <Mol Smiles>
CN1C/C=C\CCOc2cccc(c2)-c2ccnc(n2)Nc2cccc(c2)C1

>  <Parameter>
TGI

>  <Inequality Operator>
=

>  <Obs Value>
0.289

$$$$
>  <Mol Smiles>
COC(=O)[C@H](C)NC(=O)NC(=O)NC(=O)CI

>  <Parameter>
TGI

>  <Inequality Operator>
=

>  <Obs Value>
23.5

$$$$
>  <Mol Smiles>
CN1CCN(Cc2ccc(NC(=O)c3cncc(C#Cc4cnc5ccc(O[C@@H]6CCOC6)nn45)c3)cc2C(F)(F)F)CC1

>  <Parameter>
TGI

>  <Inequality Operator>
=

>  <Obs Value>
0.834

$$$$
>  <Mol Smiles>
NC(=O)c1c(NC(=O)c2ccc(C(F)(F)F)cc2)sc2c1CCC(=O)C2

>  <Parameter>
TGI

>  <Inequality Operator>
=

>  <Obs Value>
4.22

$$$$

###

System: HS 578T breast
Test: NCI tumour cell line growth inhibition, 48 h; in the data active = GI50 below about 0.43 µM; inactive = the rest
Labels: label 1 for active, label 0 for inactive

>  <Mol Smiles>
O=C1C=CC(=CC=C2N(Cc3ccc4ccccc4c3)c3ccccc3N2Cc2ccc3ccccc3c2)C=C1

>  <Study System>
HS 578T breast

>  <Classification>
label 0

$$$$
>  <Mol Smiles>
CNCc1cccc2c1OCCCCCC[C@@](C)(O)CC1(CC1)S(=O)(=O)c1ccc(cc1)-c1cnc(N)c(n1)C(=O)N2

>  <Study System>
HS 578T breast

>  <Classification>
label 1

$$$$
>  <Mol Smiles>
N#C/C(=C1/C(=O)Nc2ccccc21)c1nnc(NC(=O)c2ccc(-n3c(=O)[nH]c4ccccc4c3=O)cc2)s1

>  <Study System>
HS 578T breast

>  <Classification>
label 0

$$$$
>  <Mol Smiles>
O=C(N/N=C/c1ccc(-c2ccc(O)cc2)s1)c1[nH]c2ccc(Br)cc2c1-c1ccccc1

>  <Study System>
HS 578T breast

>  <Classification>
label 0

$$$$

###

Test system: SNB-75 CNS
Assay: NCI tumour cell line growth inhibition, 48 h; in the data active means GI50 below about 0.43 µM; inactive means the rest
Outcomes: active, inactive

>  <Molecule>
N#C/C(=C1/C(=O)Nc2ccccc21)c1nnc(NC(=O)c2ccc(-n3c(=O)[nH]c4ccccc4c3=O)cc2)s1

>  <Classification>
inactive

$$$$
>  <Molecule>
CCCn1cc(-c2nc(Nc3ccc(C(=O)NCCCCNc4cccc5c4C(=O)N(C4CCC(=O)NC4=O)C5=O)cc3)nc3[nH]ccc23)cn1 (centres undefined)

>  <Classification>
active

$$$$
>  <Molecule>
O=C(N/N=C/c1ccc(-c2ccc(O)cc2)s1)c1[nH]c2ccc(Br)cc2c1-c1ccccc1

>  <Classification>
inactive

$$$$
>  <Molecule>
O=C1C=CC(=CC=C2N(Cc3ccc4ccccc4c3)c3ccccc3N2Cc2ccc3ccccc3c2)C=C1

>  <Classification>
inactive

$$$$
